# ASSAY_NOTES: Primary redox qHTS assay for identification of artifact compounds. (AID 1845223)
# MEASUREMENT_SETUP: Amplex Red/HRP redox cycling with DTT, fluorescence; series mostly up to 53.8 µM
Results filed as inconclusive are left out. The source made the active and inactive calls. The call rests on the fitted dose curve; in most records, active means well fitted activation curve with a large enough effect; inconclusive means small, poorly fitted or top-dose-only effect; inactive means flat fitted curve, though single readings scatter. Where a SMILES comes first, the peptide text is derived from it. [ ]: non-standard residue; d: D form. ξ: configuration not given here. ξLac(3-iPr) = CC(C)CC(O)C(=O)O; NMeV = CN[CH](C(=O)O)C(C)C; βAla = NCCC(=O)O
REPORTED_ENDPOINT: redox activity (% of DA3003)

Some solved cases for reference:
COC(=O)C12CCC(C)C(C)C1C1=CCC3C4(C)CCC(OC(C)=O)C(C)(C)C4CCC3(C)C1(C)CC2 (configuration not stated)    inactive
CC(C)CC1OC(=O)C2CCCN2C(=O)CCNC(=O)C(Cc2ccccc2)NC(=O)C(C(C)C)N(C)C(=O)C(C(C)C)N(C)C1=O (configuration not stated) (cyclo([ξLac(3-iPr)][NMeV][NMeV]F[βAla]P); configuration not given here)    inactive
CCOC(=O)CCN(C(=O)c1ccc2c(c1)nc(CNc1ccc(C(=N)N)cc1)n2C)c1ccccn1    inactive
C[C@@H]([C@@H](O)c1ccc(O)cc1)N1CCC(O)(c2ccccc2)CC1    inactive
COc1ccc(Oc2cc(C)c(-c3csc(NC(=O)c4ccncc4)n3)c(C)c2)cc1    inactive

Query string: Output redox activity (% of DA3003) of CCCNc1ccc2ncc(-c3ccc4[nH]ncc4c3)n2n1
Result string: inactive

Query string: Give a short answer stating reported redox activity (% of DA3003) for CC(=O)O[C@@H]1[C@@H](O)[C@H](C)O[C@@H](O[C@H]2[C@@H]3C=CO[C@@H](O[C@@H]4O[C@H](CO)[C@@H](O)[C@H](O)[C@H]4O)[C@@H]3[C@@]3(CO)O[C@@H]23)[C@@H]1OC(=O)/C=C/c1ccccc1 .
Result string: inactive
